# tested.on: TNFα / TNFα receptor (TNFα R1/Fc) (Homo sapiens, UniProt P01375)
# Construct: purchased R&D Systems
# Sequence (P01375 77-233 limits assumed, species assumed): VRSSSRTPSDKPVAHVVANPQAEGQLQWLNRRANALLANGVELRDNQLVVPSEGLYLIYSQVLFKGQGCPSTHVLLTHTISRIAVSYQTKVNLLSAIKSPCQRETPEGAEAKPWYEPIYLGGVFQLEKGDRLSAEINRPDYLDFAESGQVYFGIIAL
# measurement.protocol: Inhibition of binding of TNFα to the TNFα receptor (plate ELISA competition)
# condition.description: Table 2; read-out: Activity (IC50, inhibition of TNFα binding to TNFα R1/Fc)
Numbered stars: 1 amine (or outer) side, 2 acyl side, 3 side chain; on linkers, the order of the positions; unused ones are H or OH. Bridge positions count the residues as written; N and C are the ends. Square brackets hold non-standard residues; d marks the D form. Peptide text beside a SMILES is read from it. Bip = N[C@@H](Cc1ccc(-c2ccccc2)cc1)C(=O)O; Phe(4-NH2) = Nc1ccc(C[C@H](N)C(=O)O)cc1; d(hPhe) = N[C@H](CCc1ccccc1)C(=O)O; d2Thi = N[C@H](Cc1cccs1)C(=O)O; Suc = O=C(CCC(=O)[*:2])[*:1]; Ac3c = NC1(C(=O)O)CC1; βAla = NCCC(=O)O
measurement.type: IC50

Past entries and their recorded results:
compound	IC50
O=C(O)CCNC(=O)[C@@H]1Cc2ccc(cc2)NC(=O)CCC(=O)N[C@H](Cc2cccs2)C(=O)N[C@@H](Cc2ccc(-c3ccccc3)cc2)C(=O)N[C@H](CCc2ccccc2)C(=O)N1 [Compound 448] ([d2Thi][Bip][d(hPhe)][Phe(4-NH2)][βAla]-OH; linker N-4 via Suc)	10 to 30 µM
O=C1N[C@@H](C(=O)O)Cc2ccc(cc2)NC(=O)[C@H](O)[C@@H](O)C(=O)N[C@H](Cc2cccs2)C(=O)N[C@H](Cc2ccc(-c3ccccc3)cc2)C(=O)N[C@H]1Cc1ccccc1 [Compound 281]	> 100 µM

INPUT: Endpoint output: IC50 of O=C1CCC(=O)N[C@H](Cc2cccs2)C(=O)N[C@@H](Cc2ccccc2)C(=O)N[C@H](Cc2ccccc2)C(=O)N[C@H](C(=O)O)Cc2ccc(cc2)N1 [Compound 83] ([d2Thi]F[dF][Phe(4-NH2)]-OH; linker N-4 via Suc) . Value?
OUTPUT: > 100 µM

INPUT: Endpoint output: IC50 of O=C1CCC(=O)N[C@H](Cc2cccs2)C(=O)N[C@@H](Cc2ccc(-c3ccccc3)cc2)C(=O)N[C@H](CCc2ccccc2)C(=O)N[C@H](C(=O)NC2(C(=O)O)CC2)Cc2ccc(cc2)N1 [Compound 451] ([d2Thi][Bip][d(hPhe)][Phe(4-NH2)][Ac3c]-OH; linker N-4 via Suc) . Value?
OUTPUT: 30 to 100 µM

* * *

# tested.on: TNFα / TNFα receptor (TNFα R1/Fc) (Homo sapiens, UniProt P01375)
# Construct: purchased R&D Systems
# measurement.protocol: Inhibition of binding of TNFα to the TNFα receptor (plate ELISA competition)
# condition.description: Table 2; read-out: Activity (IC50, inhibition of TNFα binding to TNFα R1/Fc)
# Experimental: The compounds listed in Table 2 below were assayed for ability to inhibit binding of TNFα to the TNFα receptor (TNFα R1/Fc). The assays were performed as described in the following procedure: TNFα (R&D Systems) was coated on high binding plate wells (Corning 96-well) at a single uniform concentration of 15 nM, 100 μL/well in PBS. […] The TMB reaction was stopped with the addition of 0.5N HCl and then the plate was read for absorbance at 450 nm.
Numbered stars: 1 amine (or outer) side, 2 acyl side, 3 side chain; on linkers, the order of the positions; unused ones are H or OH. Bridge positions count the residues as written; N and C are the ends. Square brackets hold non-standard residues; d marks the D form. Peptide text beside a SMILES is read from it. Tartaroyl(2R,3R-(OAc)2) = CC(=O)O[C@@H](C(=O)[*:1])[C@@H](OC(C)=O)C(=O)[*:2]; Phe(3-CF3) = N[C@@H](Cc1cccc(C(F)(F)F)c1)C(=O)O; Bip = N[C@@H](Cc1ccc(-c2ccccc2)cc1)C(=O)O; dPhe(4-NH2) = Nc1ccc(C[C@@H](N)C(=O)O)cc1; Phe(4-NH2) = Nc1ccc(C[C@H](N)C(=O)O)cc1; d(hPhe) = N[C@H](CCc1ccccc1)C(=O)O; d2Thi = N[C@H](Cc1cccs1)C(=O)O; Suc = O=C(CCC(=O)[*:2])[*:1]
Recorded measurements of IC50, one per entry

Past entries and their recorded results:
molecule	IC50
O=C1CCC(=O)N[C@H](CCc2ccccc2)C(=O)N[C@@H](Cc2ccc(-c3ccccc3)cc2)C(=O)N[C@H](Cc2ccccc2)C(=O)N[C@H](C(=O)O)Cc2ccc(cn2)N1 [Compound 546]	< 10 µM
O=C1N[C@H](Cc2ccccc2)C(=O)N[C@@H](C(=O)O)Cc2ccc(cc2)NC(=O)[C@H](O)[C@@H](O)C(=O)N[C@H](Cc2cccs2)C(=O)N[C@H]1Cc1ccc(-c2ccccc2)cc1 [Compound 184]	> 100 µM
O=C1COc2ccc(cc2)C[C@@H](C(=O)N[C@H](Cc2ccccc2)C(=O)O)NC(=O)[C@H](Cc2ccccc2F)NC(=O)[C@@H](Cc2ccc(-c3ccccc3)cc2)NC(=O)[C@H](Cc2cccs2)N1 [Compound 587]	< 10 µM
CC(=O)O[C@H]1C(=O)Nc2ccc(cc2)C[C@H](C(=O)N[C@@H](Cc2ccccc2)C(=O)O)NC(=O)[C@@H](CCc2ccccc2)NC(=O)[C@H](Cc2ccc(-c3ccccc3)cc2)NC(=O)[C@@H](Cc2cccs2)NC(=O)[C@@H]1OC(C)=O [Compound 409] ([d2Thi][Bip][d(hPhe)][dPhe(4-NH2)]F-OH; linker N-4 via Tartaroyl(2R,3R-(OAc)2))	< 10 µM
C[C@H](NC(=O)[C@@H]1Cc2ccc(cc2)OCC(=O)N[C@@H](Cc2cccs2)C(=O)N[C@H](Cc2ccc(-c3ccccc3)cc2)C(=O)N[C@@H](Cc2ccccc2)C(=O)N1)C(=O)O [Compound 385]	< 10 µM

INPUT: Endpoint output: IC50 of COc1ccc(C[C@@H]2NC(=O)[C@H](Cc3cccs3)NC(=O)COc3ccc(cc3)C[C@@H](C(=O)O)NC(=O)[C@H](Cc3ccccc3)NC2=O)cc1OC [Compound 406] . Value?
OUTPUT: > 100 µM

INPUT: Endpoint output: IC50 of O=C1COc2ccc(cc2)C[C@@H](C(=O)O)NC(=O)[C@@H](CCc2ccccc2)NC(=O)[C@H](Cc2ccc(-c3ccccc3)cc2)NC(=O)C(c2ccc(Br)cc2)N1 (some centres unmarked) [Compound 517] . Value?
OUTPUT: 10 to 30 µM

INPUT: Endpoint output: IC50 of O=C1COc2ccc(cc2)C[C@@H](C(=O)O)NC(=O)[C@H](Cc2ccc(-c3ccncc3)cc2)NC(=O)[C@@H](Cc2ccc(-c3ccccc3)cc2)NC(=O)[C@H](Cc2cccs2)N1 [Compound 634] . Value?
OUTPUT: < 10 µM

INPUT: Endpoint output: IC50 of O=C1CCC(=O)N[C@H](Cc2cccs2)C(=O)N[C@@H](Cc2ccc(-c3ccccc3)cc2)C(=O)N[C@H](Cc2ccc(O)cc2)C(=O)N[C@H](C(=O)O)Cc2ccc(cc2)N1 [Compound 59] ([d2Thi][Bip][dY][Phe(4-NH2)]-OH; linker N-4 via Suc) . Value?
OUTPUT: > 100 µM

INPUT: Endpoint output: IC50 of CC(C)(C)OC(=O)CC[C@@H]1NC(=O)[C@@H](Cc2ccc(-c3ccccc3)cc2)NC(=O)[C@H](Cc2cccs2)NC(=O)COc2ccc(cc2)C[C@@H](C(=O)O)NC1=O [Compound 349] . Value?
OUTPUT: 10 to 30 µM

INPUT: Endpoint output: IC50 of O=C1CCC(=O)N[C@H](Cc2cccs2)C(=O)N[C@@H](Cc2cccc(C(F)(F)F)c2)C(=O)N[C@H](Cc2ccccc2)C(=O)N[C@H](C(=O)O)Cc2ccc(cc2)N1 [Compound 208] ([d2Thi][Phe(3-CF3)][dF][Phe(4-NH2)]-OH; linker N-4 via Suc) . Value?
OUTPUT: > 100 µM

INPUT: Endpoint output: IC50 of COC(=O)c1ccc(-c2ccc(C[C@@H]3NC(=O)[C@@H](Cc4cccs4)NC(=O)[C@H](O)[C@@H](O)C(=O)Nc4ccc(cc4)C[C@@H](C(=O)O)NC(=O)[C@@H](Cc4ccccc4)NC3=O)cc2)cc1 [Compound 332] . Value?
OUTPUT: < 10 µM
